# targetOrSystem: recombinant human TYRO3 (Homo sapiens (Human))
# experimentNotes: TYRO3 enzymatic assay (radiometric [32P]-ATP, Poly(Glu,Tyr) substrate)
# conditionsUsed: recombinant human TYRO3, [32P]-ATP
# Description: Poly(Glu, Tyr) sodium salt (Glu:Tyr (4:1), quality level 200, molecular weight 5,000-20,000, obtained from Sigma Aldrich, catalogue #P7244, assay concentration 0.20 mg/mL) and recombinant human TYRO3 (obtained from ThermoFisher Scientific, catalogue #PV3828, assay concentration 2 nM) were mixed in assay buffer (20 mM Hepes pH 7.5, 10 mM MgCl2, 1 mM EGTA, 0.02% Brij35, 0.02 mg/ml BSA, 0.1 mM Na3VO4, 2 mM DTT, 1% DMSO, with added MnCl2 at a final concentration of 2 mM). […]
reportedEndpoint: IC50

{"columns": ["molecule", "reportedEndpoint", "recordedResult"],
 "data": [
  ["COc1ccc(-c2c[nH]c3ncc(-c4ccc(CN5CCCC(C)(O)C5)cc4)cc23)cn1 (stereo not shown)", "IC50", "51 to 150 nM"],
  ["Fc1cccc(-c2c[nH]c3ncc(-c4ccc(CN5C[C@@H]6C[C@H]5CO6)cc4)cc23)c1", "IC50", "51 to 150 nM"],
  ["CC1(O)CCN(c2ccc(-c3cnc4[nH]cc(-c5ccc6[nH]ccc6c5)c4c3)cc2)CC1", "IC50", "151 to 500 nM"],
  ["COc1ccc(-c2c[nH]c3ncc(-c4ccc(CN5CCCC(CO)C5)cc4)cc23)cn1 (stereo not shown)", "IC50", "51 to 150 nM"],
  ["OC1CCCN(Cc2ccc(-c3cnc4[nH]cc(-c5ccc(C(F)(F)F)cc5)c4c3)cc2)C1 (stereo not shown)", "IC50", "151 to 500 nM"]
]}

Give IC50 for OC1CCCN(Cc2ccc(-c3cnc4[nH]cc(-c5ccc(C(F)(F)F)nc5)c4c3)cc2)C1 (stereo not shown)
51 to 150 nM

Give the value of IC50 reported for the following: CCN1CCc2cc(-c3c[nH]c4ncc(-c5ccc(CN6CCCC(O)C6)cc5)cc34)ccc2C1 (stereo not shown)
51 to 150 nM

Output measured IC50 for this item: OCc1ccc(-c2c[nH]c3ncc(-c4ccc(CN5CCCC(O)C5)cc4)cc23)cn1 (stereo not shown)
51 to 150 nM

###

# targetOrSystem: recombinant human TYRO3 (Homo sapiens (Human), UniProt Q06418)
# Sequence (Q06418 41-890): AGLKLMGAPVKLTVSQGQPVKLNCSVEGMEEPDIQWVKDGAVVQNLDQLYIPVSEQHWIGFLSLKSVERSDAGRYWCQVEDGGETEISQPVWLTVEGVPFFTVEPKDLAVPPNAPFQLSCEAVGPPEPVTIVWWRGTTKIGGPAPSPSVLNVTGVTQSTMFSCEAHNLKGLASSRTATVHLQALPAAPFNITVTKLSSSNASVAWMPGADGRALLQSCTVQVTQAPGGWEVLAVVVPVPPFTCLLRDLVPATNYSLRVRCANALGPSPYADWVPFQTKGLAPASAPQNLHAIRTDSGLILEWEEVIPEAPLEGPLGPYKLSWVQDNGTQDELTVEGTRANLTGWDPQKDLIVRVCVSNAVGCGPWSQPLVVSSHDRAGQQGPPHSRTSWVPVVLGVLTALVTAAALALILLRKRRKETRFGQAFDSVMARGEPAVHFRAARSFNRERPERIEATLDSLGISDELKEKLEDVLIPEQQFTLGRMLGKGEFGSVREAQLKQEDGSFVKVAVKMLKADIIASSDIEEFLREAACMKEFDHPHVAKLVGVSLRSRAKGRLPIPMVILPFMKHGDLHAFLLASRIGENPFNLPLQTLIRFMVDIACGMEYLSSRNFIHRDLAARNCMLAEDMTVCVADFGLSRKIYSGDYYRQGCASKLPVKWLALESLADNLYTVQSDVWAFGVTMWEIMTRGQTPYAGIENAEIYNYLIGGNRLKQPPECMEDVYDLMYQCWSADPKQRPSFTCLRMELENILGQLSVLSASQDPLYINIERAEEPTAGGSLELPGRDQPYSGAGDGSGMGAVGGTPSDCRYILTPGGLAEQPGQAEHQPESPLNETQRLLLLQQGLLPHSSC
# experimentNotes: TYRO3 enzymatic assay (radiometric [32P]-ATP, Poly(Glu,Tyr) substrate)
# Type: biochemical
# conditionsUsed: recombinant human TYRO3, [32P]-ATP
# Protocol: Poly(Glu, Tyr) sodium salt (Glu:Tyr (4:1), quality level 200, molecular weight 5,000-20,000, obtained from Sigma Aldrich, catalogue #P7244, assay concentration 0.20 mg/mL) and recombinant human TYRO3 (obtained from ThermoFisher Scientific, catalogue #PV3828, assay concentration 2 nM) were mixed in assay buffer (20 mM Hepes pH 7.5, 10 mM MgCl2, 1 mM EGTA, 0.02% Brij35, 0.02 mg/ml BSA, 0.1 mM Na3VO4, 2 mM DTT, 1% DMSO, with added MnCl2 at a final concentration of 2 mM). […]
reportedEndpoint: IC50

Solved entries (count: 5):
{"columns": ["compound", "recordedResult"],
 "data": [
  ["Cc1ccc(-c2c[nH]c3ncc(-c4ccc(CN5CCCC(O)C5)cc4)cc23)cn1 (stereo not shown)", "51 to 150 nM"],
  ["COc1ccc(-c2c[nH]c3ncc(-c4ccc(CN5CCCC(O)C5)cc4)cc23)cn1 (single isomer, unassigned; enantiomer 1) [compound 26]", "< 51 nM"],
  ["COc1ccc(-c2c[nH]c3ncc(-c4ccc(CN5CCCC(OC)C5)cc4)cc23)cn1 (single isomer, unassigned; enantiomer 1)", "151 to 500 nM"],
  ["COCc1[nH]c2ncc(-c3ccc(CN4CCCC(O)C4)cc3)cc2c1-c1ccc(F)nc1 (stereo not shown)", "51 to 150 nM"],
  ["COc1ccc(-c2c[nH]c3ncc(-c4ccc(CN5CCC(O)CC5)cc4)cc23)cn1", "151 to 500 nM"]
]}

Output IC50 of COc1ccc(-c2c[nH]c3ncc(-c4ccc(CN5CCC(N(C)C)CC5)cc4)cc23)cn1
151 to 500 nM

Indicate its recorded IC50; the compound in question is Cc1ccc(-c2c[nH]c3ncc(-c4ccc(CN5CCCC(O)C5)cc4)cc23)cc1 (stereo not shown)
51 to 150 nM
